- experimental.system: UniProtKB P56817
- Sequence (P56817 46-501): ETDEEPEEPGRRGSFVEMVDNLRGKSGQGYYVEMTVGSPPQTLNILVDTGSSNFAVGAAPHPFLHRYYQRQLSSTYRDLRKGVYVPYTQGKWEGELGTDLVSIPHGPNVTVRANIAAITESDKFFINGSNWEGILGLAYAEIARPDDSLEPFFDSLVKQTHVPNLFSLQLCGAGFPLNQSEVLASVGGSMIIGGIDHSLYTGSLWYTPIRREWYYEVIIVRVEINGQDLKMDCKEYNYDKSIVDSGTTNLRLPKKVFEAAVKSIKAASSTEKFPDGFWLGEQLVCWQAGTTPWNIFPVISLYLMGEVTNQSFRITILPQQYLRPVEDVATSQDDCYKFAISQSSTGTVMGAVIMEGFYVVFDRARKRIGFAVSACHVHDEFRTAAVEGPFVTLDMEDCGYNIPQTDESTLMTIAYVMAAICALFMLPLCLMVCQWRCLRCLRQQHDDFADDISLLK
- assay.procedure: BACE1 FP assay
- Type: biochemical
- experimental.context: pH 4.5
pIC50: −log10 of the molar value.
value.type: pIC50

[[record]]
compound = "CC1(c2cc(NC(=O)c3ccc(Cl)cn3)ccc2F)N=C(N)OC2(CCOCC2)C1(F)F (stereo not shown)"
result = 7.03

[[record]]
compound = "CC#Cc1cncc(-c2ccc(F)c([C@]3(C)CC4(CCC4)OC(N)=N3)c2)c1"
result = 5.45

[[record]]
compound = "CC1(c2cc(NC(=O)c3ccc(C#N)cn3)ccc2F)CC2(CCOCC2)OC(N)=N1 (stereo not shown)"
result = 7.32

[[record]]
compound = "COc1cccnc1Nc1ccc(F)c([C@]2(C)CC3(CCOCC3)SC(N)=N2)c1"
result = 7.49

[[record]]
compound = "CC#Cc1cncc(-c2csc(C3(C)CC4(COC4)SC(N)=N3)c2)c1 (stereo not shown)"
result = 6.64

[[record]]
compound = "C[C@@]1(c2cc(NC(=O)c3ccc(F)cn3)ccc2F)CC2(CCC2)SC(N)=N1"
result = 7.57

[[record]]
compound = "CC1(c2cc(NC(=O)c3ccc(F)cn3)ccc2F)CC2(CCC2)OC(N)=N1 (stereo not shown)"
result = 6.44

[[record]]
compound = "C[C@@]1(c2cc(NC(=O)c3ncc(Cl)cc3F)ccc2F)CC2(CCC(F)(F)CC2)OC(N)=N1"
result = 7.80

[[record]]
compound = "COc1cnc(C(=O)Nc2ccc(F)c([C@]3(C)CC4(CCC4)OC(N)=N3)c2)cn1"
result = 6.55

[[record]]
compound = "C[C@]1(c2cc(NC(=O)c3ccc(Cl)cn3)ccc2F)CC2(CCOCC2)SC(N)=N1"
result = 5.81


src = patent US9493485B2
